Tested on: Escherichia coli TOP10;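 further: peptides expressed intracellularly from a pBAD plasmid library in pooled LB shake-flask culture, induced with 0.3% L-arabinose, DNA abundance read by NGS, three biological replicates, DESeq2 with apeglm shrinkage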
Assay: shrunken log2 fold change of peptide-encoding DNA abundance (4.5 h post-induction vs induction); higher = less antimicrobial activity (less host growth inhibition)
Conditions: time post-induction: 4.5 h; library: site-saturation at positions 5, 18, 19, 20
experimental-readout: shrunken log2 fold change
Just the number.

stdin: Give its shrunken log2 fold change value. Item: RRIRSRPPRLPRPRPRPINLPRP
stdout: -0.00701

stdin: What value of measured shrunken log2 fold change is listed for RRIRCRPPRLPRPRPRPGFTPRP ?
stdout: -0.131

stdin: I have this sequence here, RRIRCRPPRLPRPRPRPKPTPRP , and I need its recorded shrunken log2 fold change.
stdout: 0.128

stdin: // returns reported shrunken log2 fold change for input RRIRLRPPRLPRPRPRPRELPRP
stdout: 0.765

stdin: Which shrunken log2 fold change is reported for this sequence? RRIRWRPPRLPRPRPRPGVTPRP
stdout: 0.586

stdin: Entry RRIRDRPPRLPRPRPRPEAIPRP : reported shrunken log2 fold change = ?
stdout: 0.0379

stdin: Fill in the blank: the reported shrunken log2 fold change of RRIRVRPPRLPRPRPRPKETPRP is ____.
stdout: 0.0161

stdin: Look at this sequence and give its reported shrunken log2 fold change. RRIRHRPPRLPRPRPRPNHGPRP
stdout: 0.0424

stdin: Can you share its shrunken log2 fold change? I mean this sequence: RRIRSRPPRLPRPRPRPSGEPRP
stdout: 0.406

stdin: Reported shrunken log2 fold change, sequence RRIRQRPPRLPRPRPRPIIRPRP : ____
stdout: 0.00525

stdin: Entry under review: RRIRSRPPRLPRPRPRPKSHPRP . Reported shrunken log2 fold change?
stdout: -0.158

stdin: # lookup: shrunken log2 fold change of RRIRKRPPRLPRPRPRPQYEPRP
stdout: 0.0265

stdin: Give the measured shrunken log2 fold change of RRIRFRPPRLPRPRPRPLIGPRP .
stdout: -0.106

stdin: What shrunken log2 fold change value was documented for this sequence, RRIRSRPPRLPRPRPRPTLEPRP ?
stdout: 0.474

stdin: Look up shrunken log2 fold change for this sequence: RRIRKRPPRLPRPRPRPAINPRP
stdout: 0.126

Source listed as the supplement of paper PMC9112550.
